Test system: LNCaP cells
protocol description: Internalization of radiolabelled ligands into LNCaP cells
Type: cell-based
condition set: 68Ga-natF-L; 0.5 nM, 1 hour, 37° C.; % of reference ligand ([125I]I-BA)KuE; mean ± SD
measurement name: Internalization (%)
The figure you give is taken to be in %; do not add the unit.

Input CC(C)(C)[Si](F)(c1ccc(C(=O)NC[C@@H](C(=O)N[C@H](CCCCNC(=O)CCC(=O)NCCC[C@@H](NC(=O)CC[C@H](NC(=O)N[C@@H](CCC(=O)O)C(=O)O)C(=O)O)C(=O)O)C(=O)O)n2cc(CNC(=O)CCP(=O)(O)CN3CCN(CP(=O)(O)CCC(=O)O)CCN(CP(=O)(O)CCC(=O)O)CC3)nn2)cc1)C(C)(C)C [ligand 9, PSMA-SIFA5] . Output Internalization: 176.9

For record CC(C)(C)[Si](F)(c1ccc(C(=O)NC[C@@H](C(=O)N[C@H](CCCCNC(=O)CCCCCCC(=O)NCCCC[C@H](NC(=O)N[C@@H](CCC(=O)O)C(=O)O)C(=O)O)C(=O)O)n2cc(CNC(=O)CCP(=O)(O)CN3CCN(CP(=O)(O)CCC(=O)O)CCN(CP(=O)(O)CCC(=O)O)CC3)nn2)cc1)C(C)(C)C [ligand 6, PSMA-SIFA2] the listed Internalization is 43.0

So, CC(C)(C)[Si](F)(c1ccc(C(=O)N[C@H](CNC(=O)CCC(C(=O)O)N2CCN(CC(=O)O)CCN(CC(=O)O)CCN(CC(=O)O)CC2)C(=O)N[C@H](CCCCNC(=O)CCC(=O)NCCC[C@@H](NC(=O)CC[C@H](NC(=O)N[C@@H](CCC(=O)O)C(=O)O)C(=O)O)C(=O)O)C(=O)O)cc1)C(C)(C)C (stereo partly shown) [ligand 8, PSMA-SIFA4] ? Its Internalization was 98.2

Recorded Internalization (molecule CC(C)(C)[Si](F)(c1ccc(C(=O)NC[C@@H](NC(=O)CCC(C(=O)O)N2CCN(CC(=O)O)CCN(CC(=O)O)CCN(CC(=O)O)CC2)C(=O)N[C@H](CCCCNC(=O)CCCCCCC(=O)NCCCC[C@H](NC(=O)N[C@@H](CCC(=O)O)C(=O)O)C(=O)O)C(=O)O)cc1)C(C)(C)C (stereo partly shown) [ligand 5, PSMA-SIFA1] ): 33.0

---

study system: Human Serum Albumin (Homo sapiens)
Sequence (P02768 25-609): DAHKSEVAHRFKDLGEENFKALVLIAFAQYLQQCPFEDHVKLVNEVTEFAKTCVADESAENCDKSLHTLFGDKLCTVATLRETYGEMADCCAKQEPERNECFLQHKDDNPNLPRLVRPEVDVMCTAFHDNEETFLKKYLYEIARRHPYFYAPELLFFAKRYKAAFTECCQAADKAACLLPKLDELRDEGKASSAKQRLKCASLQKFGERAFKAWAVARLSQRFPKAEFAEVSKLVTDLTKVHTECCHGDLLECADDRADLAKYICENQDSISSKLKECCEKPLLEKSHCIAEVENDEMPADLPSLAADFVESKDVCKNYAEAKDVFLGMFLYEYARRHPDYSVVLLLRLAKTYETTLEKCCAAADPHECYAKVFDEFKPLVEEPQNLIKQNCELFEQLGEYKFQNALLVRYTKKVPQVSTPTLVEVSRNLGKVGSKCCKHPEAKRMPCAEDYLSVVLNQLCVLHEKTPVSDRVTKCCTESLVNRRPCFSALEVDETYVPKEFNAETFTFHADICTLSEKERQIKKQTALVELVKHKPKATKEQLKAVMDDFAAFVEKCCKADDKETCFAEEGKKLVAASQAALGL
protocol description: HSA binding on Chiralpak HSA column
Assay type: in vitro ADME
condition set: natLu-natF-L
Exercise: state measured HSA binding for each of the molecules provided.
Give the quantity in %, number only.

Entry CC(C)(C)[Si](F)(c1ccc(C(=O)NCC(NC(=O)CN2CCN(CC(=O)O)CCN(CC(=O)O)CCN(CC(=O)O)CC2)C(=O)NC(CCCCNC(=O)CCC(=O)NCCCC(NC(=O)CC[C@H](NC(=O)N[C@@H](CCC(=O)O)C(=O)O)C(=O)O)C(=O)O)C(=O)O)cc1)C(C)(C)C (stereo partly shown) [ligand 10] ; assay system Human Serum Albumin (Homo sapiens); HSA binding recorded at 94.0

Human Serum Albumin (Homo sapiens) HSA binding of CC(C)(C)[Si](F)(c1ccc(C(=O)NC(CNC(=O)CN2CCN(CC(=O)O)CCN(CC(=O)O)CCN(CC(=O)O)CC2)C(=O)NC(CCCCNC(=O)CCC(=O)NCCCC(NC(=O)CC[C@H](NC(=O)N[C@@H](CCC(=O)O)C(=O)O)C(=O)O)C(=O)O)C(=O)O)cc1)C(C)(C)C (stereo partly shown) [ligand 11] is 92.4

# HSA binding measured on Human Serum Albumin (Homo sapiens) for item CC(C)(C)[Si](F)(c1ccc(C(=O)N[C@H](CNC(=O)CCC(C(=O)O)N2CCN(CC(=O)O)CCN(CC(=O)O)CCN(CC(=O)O)CC2)C(=O)N[C@H](CCCCNC(=O)CCC(=O)NCCC[C@@H](NC(=O)CC[C@H](NC(=O)N[C@@H](CCC(=O)O)C(=O)O)C(=O)O)C(=O)O)C(=O)O)cc1)C(C)(C)C (stereo partly shown) [ligand 8, PSMA-SIFA4] = 97.7

Lab note: molecule CC(C)(C)[Si](F)(c1ccc(C(=O)NC[C@@H](NC(=O)CCC(C(=O)O)N2CCN(CC(=O)O)CCN(CC(=O)O)CCN(CC(=O)O)CC2)C(=O)N[C@H](CCCCNC(=O)CCC(=O)NCCC[C@@H](NC(=O)CC[C@H](NC(=O)N[C@@H](CCC(=O)O)C(=O)O)C(=O)O)C(=O)O)C(=O)O)cc1)C(C)(C)C (stereo partly shown) [ligand 7, PSMA-SIFA3] tested on Human Serum Albumin (Homo sapiens); recorded HSA binding was 97.7
